MEASURED_TARGET: T1, human SIRPγ isoform 1 (human, UniProt Q9P1W8 29-147)
T1 construct: also called sirpg; sirp-g
T1 sequence (Q9P1W8 29-147 limits assumed): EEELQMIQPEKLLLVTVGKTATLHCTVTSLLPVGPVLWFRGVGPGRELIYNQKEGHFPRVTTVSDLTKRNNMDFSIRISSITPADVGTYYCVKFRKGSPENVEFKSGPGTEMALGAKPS
TEST_METHOD_NOTES: SPR, antibody immobilised on GLC chip
PROPERTY_NAME: pKd
Reminder that pKd is minus the log10 of a molar concentration.

Observe how each entry below is paired with its result.
BINDER	pKd
antibody 136 variant MutRv_I2T/mut (antibody, human IgG1, V domains shown, Human IgG1 with L234A/L235A/G237A/N297A; Labels are light chain/heavy chain) VH: EVQLVESGGGVVQPGRSLRLSCAASGFTFSSYDVNWVRQAPGKGLEWVSLISGSGEIIYYADSVKGRFTISRDNSKNTLYLQMNSLRAEDTAVYYCAKENNRYRFFDDWGQGTLVTVSS VL: ETVLTQSPGTLSLSPGERATLSCRASQSVYTYLAWYQQKPGQAPRLLIYGASSRATGIPDRFSGSGSGTEFTLTISSLQSEDFAVYYCQQYYDRPPLTFGGGTKVEIK	7.40
antibody 136 variant MutRv_S22T/mut (antibody, human IgG1, V domains shown, Human IgG1 with L234A/L235A/G237A/N297A; Labels are light chain/heavy chain) VH: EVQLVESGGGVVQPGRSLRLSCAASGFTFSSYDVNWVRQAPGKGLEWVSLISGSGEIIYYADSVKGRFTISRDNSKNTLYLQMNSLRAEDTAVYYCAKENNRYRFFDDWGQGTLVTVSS VL: EIVLTQSPGTLSLSPGERATLTCRASQSVYTYLAWYQQKPGQAPRLLIYGASSRATGIPDRFSGSGSGTEFTLTISSLQSEDFAVYYCQQYYDRPPLTFGGGTKVEIK	7.21

Specify measured pKd for antibody 136 variant MutRv_I2T/mut_V34M (antibody, human IgG1, V domains shown, Human IgG1 with L234A/L235A/G237A/N297A; Labels are light chain/heavy chain) VH: EVQLVESGGGVVQPGRSLRLSCAASGFTFSSYDMNWVRQAPGKGLEWVSLISGSGEIIYYADSVKGRFTISRDNSKNTLYLQMNSLRAEDTAVYYCAKENNRYRFFDDWGQGTLVTVSS VL: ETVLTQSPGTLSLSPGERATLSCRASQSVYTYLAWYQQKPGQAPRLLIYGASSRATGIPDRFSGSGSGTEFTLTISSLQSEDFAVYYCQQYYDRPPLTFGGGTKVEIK .
7.47
